From: patent US20250011397A1

- Tested system: T1, SARS-CoV-2 receptor binding domain (RBD), wild type, His-tagged (BEI NR52309) (SARS-CoV-2, UniProt P0DTC2 319-541)
- T1 construct: also called WT RBD
- Assay comment: RBD KD column; method and antibody format not stated
pKd: −log10 of the molar value.

[
  {
    "Binder": "mAb 128 (antibody, V domains shown) VH: QVQLVQSGAEVKKPGASVKVSCKASGYTFTHYYMHWVRQAPGQGLEWMGIINPSSSSASYSQKFQGRVTMTRDTSTSTVYMELSSLRSEDTAVYYCARDGRYGSGSYPFDYWGQGTLVTVSS VL: DIQMTQSPSSLSASVGDRVTITCRASQNISRYLNWYQQKPGKAPKLLIYDASNLETGVPSRFSGSGSGTDFTLTISSLQPEDFATYYCQQANGFPPTFGQGTKLEIKR",
    "pKd": 7.24
  },
  {
    "Binder": "mAb 178 (antibody, V domains shown, also called IgG 178) VH: QVQLVQSGAEVKKPGASVKVSCKASGYTFTDYHMHWVRQAPGQGLEWMGWINPNSGGTNYAQKFQGRVTMTRDTSTSTVYMELSSLRSEDTAVYYCARDISSWYEITKFDPWGQGTLVTVSS VL: EIVMTQSPATLSVSPGERATLSCKASQSVSGTYLAWYQQKPGQAPRLLIYGASTRATGIPARFSGSGSGTEFTLTISSLQSEDFAVYYCLQTHSYPPTFGQGTKVEIKR",
    "pKd": 7.14
  },
  {
    "Binder": "mAb 160 (antibody, V domains shown, also called IgG 160) VH: QVQLVQSGAEVKKPGASVKVSCKASGYTFTGHDMHWVRQAPGQGLEWMGIINPSGGSTSYAQKFQGRVTMTRDTSTSTVYMELSSLRSEDTAVYYCARANSLRYYYGMDVWGQGTMVTVSS VL: DIQMTQSPSSLSASVGDRVTITCRASQSVSSWLAWYQQKPGKAPKLLIYAASSLQSGVPSRFSGSGSGTDFTLTISSLQPEDFATYYCQQGYTTPYTFGQGTKLEIKR",
    "pKd": 8.11
  }
]
